Source of measurements: the supplement of paper PMC5998384

Test system: HeLa Kyoto
experiment-description: thermal stability score vs G1/S (z-score of summed log2 fold changes over temperatures); higher = more thermally stable than in G1/S
assay-context: cell cycle stage: mitosis
Parameter: thermal stability score. Scope: all listed entries.
# print the numeric value only

Use the examples below as a reference point.
substance	measurement-target	measured-value
MAAAMVPGRSESWERGEPGRPALYFCGSIRGGREDRTLYERIVSRLRRFGTVLTEHVAAAELGARGEEAAGGDRLIHEQDLEWLQQADVVVAEVTQPSLGVGYELGRAVAFNKRILCLFRPQSGRVLSAMIRGAADGSRFQVWDYEEGEVEALLDRYFEADPPGQVAASPDPTT [DNPH1]	HeLa Kyoto	-2.01
MAVRSLWAGRLRVQRLLAWSAAWESKGWPLPFSTATQRTAGEDCRSEDPPDELGPPLAERALRVKAVKLEKEVQDLTVRYQRAIADCENIRRRTQRCVEDAKIFGIQSFCKDLVEVADILEKTTECISEESEPEDQKLTLEKVFRGLLLLEAKLKSVFAKHGLEKLTPIGDKYDPHEHELICHVPAGVGVQPGTVALVRQDGYKLHGRTIRLARVEVAVESQRRL [GRPEL2]	HeLa Kyoto	2.19
CASKIN2	HeLa Kyoto	1.68

We now examine a further substance.
Value of measured thermal stability score for the entry MKGLYFQQSSTDEEITFVFQEKEDLPVTEDNFVKLQVKACALSQINTKLLAEMKMKKDLFPVGREIAGIVLDVGSKVSFFQPDDEVVGILPLDSEDPGLCEVVRVHEHYLVHKPEKVTWTEAAGSIRDGVRAYTALHYLSHLSPGKSVLIMDGASAFGTIAIQLAHHRGAKVISTACSLEDKQCLERFRPPIARVIDVSNGKVHVAESCLEETGGLGVDIVLDAGVRLYSKDDEPAVKLQLLPHKHDIITLLGVGGHWVTTEENLQLDPPDSHCLFLKGATLAFLNDEVWNLSNVQQGKYLCILKDVMEKLSTGVFRPQLDEPIPLYEAKVSMEAVQKNQGRKKQVVQF [CRYZL1] : -1.74

---

System: HeLa Kyoto
experiment-description: melting temperature (median over replicates), in situ; higher = more thermally stable
assay-context: cell cycle stage: mitosis
Parameter: melting temperature. Scope: all listed entries.
Give the value, in units of °C, as a plain number.

sequence-code	unit-spec	measured-value
MREYKVVVLGSGGVGKSALTVQFVTGTFIEKYDPTIEDFYRKEIEVDSSPSVLEILDTAGTEQFASMRDLYIKNGQGFILVYSLVNQQSFQDIKPMRDQIVRVKRYEKVPLILVGNKVDLEPEREVMSSEGRALAQEWGCPFMETSAKSKSMVDELFAEIVRQMNYSSLPEKQDQCCTTCVVQ [RAP2C]	°C	55.4

We now examine a further sequence.
Value of measured melting temperature for the entry MAIRKKSTKSPPVLSHEFVLQNHADIVSCVAMVFLLGLMFEITAKASIIFVTLQYNVTLPATEEQATESVSLYYYGIKDLATVFFYMLVAIIIHAVIQEYMLDKINRRMHFSKTKHSKFNESGQLSAFYLFACVWGTFILISENYISDPTILWRAYPHNLMTFQMKFFYISQLAYWLHAFPELYFQKTKKEDIPRQLVYIGLYLFHIAGAYLLNLNHLGLVLLVLHYFVEFLFHISRLFYFSNEKYQKGFSLWAVLFVLGRLLTLILSVLTVGFGLARAENQKLDFSTGNFNVLAVRIAVLASICVTQAFMMWKFINFQLRRWREHSAFQAPAVKKKPTVTKGRSSKKGTENGVNGTLTSNVADSPRNKKEKSS [TRAM1] : 52.6
